System: SF-539 CNS
Experiment: NCI tumour cell line growth inhibition, 48 h
Where a SMILES comes first, the peptide text is derived from it. The star is where a group is joined. Cbz = O=C(OCc1ccccc1)*
readout.type: TGI

Q: If you can, please state the reported TGI value of `c1ccc2c3[nH]c(c2c1)=Nc1ccc(cc1)-c1nc2ccc(cc2o1)N=c1[nH]c(c2ccccc12)=Nc1ccc2nc(oc2c1)-c1ccc(cc1)N=3` .
A: > 100 µM

Q: Next: `COc1ccc2nc(-c3ccccc3)c(=O)[nH]c2c1`
A: > 100 µM

Q: Another compound to look at: `CCOC(=O)C1=C(Nc2ccc(Br)cc2)OCC1=O`
A: > 100 µM

Q: Item: `O=P1(Cc2ccccc2)N(Cc2ccccc2)[C@@H]2CCCC[C@H]2N1Cc1ccccc1`
A: 33.8 µM

Q: Same thing, different compound: CN1CCCOC(c2ccc(Cl)cc2)O1 (configuration not stated)
A: > 100 µM

Q: Subsequent entry: `Cc1c(Cl)cccc1NC(=O)c1cccc([N+](=O)[O-])c1O`
A: 40.6 µM

Q: Another compound: `C1COCCSC2=C(SCCO1)SC(=C1SC3=C(SCCOCCOCCS3)S1)S2`
A: > 100 µM

Q: Also `CCOc1ccc(N=Cc2c3ccccc3nc3ccccc23)cc1` , if possible.
A: > 100 µM

Q: Moving on to the next compound: C=C1C(O)C2C(=C(C)C13CC3)C(=O)C(C)(C)C2OC (configuration not stated)
A: > 100 µM

Q: // same read-out, input: `Cc1c2ccc3ccccc3c2c[n+]2ccccc12`
A: 43.4 µM

Q: Likewise for `NCCN.O=C([O-])[O-].O=C([O-])[O-].[Co+3].[K+]` ?
A: > 100 µM

Q: Try CCOC(=O)CCC(NC(=O)C(Cc1ccccc1)NC(=O)OCc1ccccc1)C(=O)OCC (stereo not drawn) (Cbz-Phe-Glu(OEt)-OEt; configuration not given here) next.
A: 37.6 µM

Q: Let us now turn to `COc1ccc(N2C(=O)C(=O)N(c3ccc(N=Nc4ccccc4)cc3)C2=S)cc1`
A: 34.2 µM

Q: Then `CCOc1cc(NC(C)=O)ccc1C(=O)NNS(=O)(=O)c1ccc(NC(C)=O)cc1` ?
A: > 100 µM

Q: // next record CC(=O)NC1C(Sc2ncn(C3OC(CO)C(O)C(O)C3NC(C)=O)n2)OC(CO)C(O)C1O (configuration not stated)
A: > 100 µM

Q: Field entry: `O=c1[nH]nc(Cc2ccc(Cl)cc2)n1/N=C/c1cccs1`
A: > 100 µM

Q: Likewise for `O=C(CBr)c1ccc2cc(Br)c3ccccc3c2c1` ?
A: 41.7 µM

Q: Same question for CC1(C)O[C@H]2OC(CO)C(N=[N+]=[N-])[C@H]2O1 (some centres not stated) please.
A: > 100 µM

Q: # iterate: `CCOC(=O)C(C)(c1c(C)[nH]c2ccccc12)c1c(C)[nH]c2ccccc12`
A: 39.1 µM

Q: What do you get for `COc1ccc(-c2ccc(NNC(=O)c3ccc(F)cc3)nn2)cc1OC` ?
A: > 100 µM

Q: And what about the compound `O=C1c2c(Br)sc(Br)c2C(=O)C1(O)O` ?
A: 39.4 µM

Q: Can you check `COc1cccc(-c2nc(-c3cnccn3)n(C/C=C/c3ccccc3)n2)c1` next?
A: > 10 µM

Q: Note, next up: `CCCC(=O)[O-].CCCC(=O)[O-].NCCN.NCCN.[Co+3].[O-][Cl+3]([O-])([O-])[O-]`
A: > 100 µM

Q: What do you have for `Cc1c2c(C(N)=O)nccc2c(C)c2c1c1ccccc1n2Cc1ccccc1` ?
A: 37.7 µM

Q: Now try Cc1ccc2c(c1)CC1(Cc3cccc(C)c3C1=O)C2=O (configuration not stated) .
A: > 100 µM

Q: Lookup `COc1ccc2nc3cc(Cl)ccc3c(Sc3ccc(NC(C)=O)cc3)c2c1`
A: 27.3 µM

Q: Same for `N/C(=N\S(=O)(=O)c1ccc(-c2ncccc2C(F)(F)F)s1)Nc1ccc(Cl)cc1`
A: > 100 µM

Q: Try the compound `Cc1noc2c1-c1ccccc1C(c1ccc(Cl)cc1)=N[C@H]2CC(N)=O`
A: > 100 µM

Q: Item: `Cn1c(=S)c2[nH]c(SCCCc3ccccc3)nc2n(C)c1=O`
A: > 100 µM

Q: Then `C[P+](C)(C)c1ccccc1` ?
A: > 100 µM

Q: Check `COc1cccc(CC(=O)N2CCN(CCCc3ccccc3)CC2)c1` too.
A: > 100 µM

Q: Next entry: `Cc1[nH]n(-c2nc(O)c(-c3ccccc3)c(=O)[nH]2)c(=O)c1CCO`
A: > 100 µM

Q: Note, next up: `COc1cc(OC)c2sc(-c3ccc(-n4cncc4-c4cc(OC)c(OC)c(OC)c4)cc3)nc2c1`
A: > 100 µM

Q: Same for `Cc1ccc2[c](c1)[Sn]([c]1ccccc1)([c]1ccccc1)[c]1cc(C)ccc1N2C`
A: > 100 µM

Q: How about `Cc1cc(C)nc(NC(P(=O)(O)O)P(=O)(O)O)n1` ?
A: > 100 µM

Q: Repeat for the following compound: CC1CC(Nc2ccc(Br)cc2)N(C(=O)c2ccc(Br)cc2)O1 (configuration not stated)
A: > 10 µM

Q: Then this compound: `COC(=O)C1=C(OC)[C@H]2C#C/C=C\C#C[C@@H]3Nc4c(cc(O)c5c4C(=O)c4ccccc4C5=O)[C@]24O[C@@]34[C@H]1C`
A: < 0.01 µM

Q: Try `NCCCNCCCCN1CCOC1=O` next.
A: > 100 µM

Q: // next record `COc1cc(C(=O)O[C@H](C(N)=O)[C@]2(C)CO2)c2cccc(C)c2c1`
A: < 0.0465 µM

Q: What do you have for CNC(C)C(O)c1ccc2oc3cc(=O)c4ccccc4c-3nc2c1 (configuration not stated) ?
A: 5.99 µM

Q: Follow-up entry: `CCCCCCCCCCCC(=O)OC[C@@H](C[As](=O)(O)O)OC(=O)CCCCCCCCCCC`
A: 27.8 µM

Q: Next compound: `CCc1nc(Cl)c(Cl)c(Cl)n1`
A: > 100 µM

###

Tested on: MDA-N
Test: NCI tumour cell line growth inhibition, 48 h
Please respond with reported TGI for every item in the list.

Q: Reported TGI for `N[C@H](Cc1ccc2oc3cc(=O)c4ccccc4c-3nc2c1)C(=O)O` : what is it?
A: 38.1 µM

Q: Now consider `O=C1CCSCCC(=O)Nc2ccccc2N1` and answer again.
A: > 100 µM

Q: # repeat for Oc1ccc(/C=C/c2cc(O)cc3c2C(c2cc(O)cc(O)c2)C(c2ccc(O)c(O)c2)O3)cc1 (stereo unspecified)
A: 56.9 µM

Q: Same again, this time with `NCCCNCCCCN1CCOC1=O`
A: > 100 µM

Q: Next: `CS(=O)(=O)CS(=O)(=O)OCCCl`
A: 470 µM

Q: How about this molecule: `CCCn1cnc2c(SCc3ccc(Cl)cc3)nc(N)nc21`
A: 55 µM

Q: What do you get for `c1ccc2c3[nH]c(c2c1)=Nc1ccc(cc1)-c1nc2ccc(cc2o1)N=c1[nH]c(c2ccccc12)=Nc1ccc2nc(oc2c1)-c1ccc(cc1)N=3` ?
A: > 100 µM

Q: Can you handle O=C1c2ccccc2OCC12OC21C=CC(Cl)=CC1 (stereo unspecified) next?
A: 43.8 µM

Q: Param item: `COc1ccc(/C=C/c2cnccn2)cc1OC`
A: > 10 µM

Q: What do you have for `COc1ccc(N2C(=O)C(=O)N(c3ccc(N=Nc4ccccc4)cc3)C2=S)cc1` ?
A: 40.3 µM

Q: Could you do the same for `Cc1ccc(C(=O)NCc2ccccc2)cc1N=NN(C)C` , please?
A: > 100 µM

Q: Repeat for the following molecule: `CC(=O)Nc1c(C(=N)C#N)ncn1CCO`
A: > 100 µM

Q: Next molecule: `Cc1[nH]n(-c2nc(O)c(-c3ccccc3)c(=O)[nH]2)c(=O)c1CCO`
A: > 100 µM

Q: Continue with O=C1/C(=C\c2cccc(Oc3ccccc3)c2)S(=O)(=O)C(c2ccccc2)N1c1cccc(Cl)c1 (stereo unspecified)
A: > 100 µM

Q: Input `COc1ccc2nc(-c3ccccc3)c(=O)[nH]c2c1`
A: > 100 µM

Q: Field entry: `CN1CC=C(c2c(N)nc(N)[nH]c2=O)CC1`
A: > 100 µM

Q: Same read-out for `O=P1(Cc2ccccc2)N(Cc2ccccc2)[C@@H]2CCCC[C@H]2N1Cc1ccccc1` ?
A: 19.8 µM

Q: Follow-up entry: `CCCO[C@@H]1[C@@H](OC(C)=O)[C@@H](OC(C)=O)C(C)(C)/C=C/[C@H](C)C(=O)[C@@]2(OC(C)=O)C[C@@](C)(OC(C)=O)[C@H](OC(C)=O)[C@@H]2[C@H]2OC(=O)CC[C@@]12OC(=O)c1ccccc1`
A: > 25 µM

Q: Next entry: CC(NC(=O)c1c(O)[nH]c(=S)[nH]c1=O)c1ccc([N+](=O)[O-])cc1 (stereo unspecified)
A: > 100 µM

Q: Likewise for `C/C(=N\NC(=S)N1CCCC1)c1nc2ncccc2[nH]1` ?
A: > 100 µM

Q: Also check `Cc1c2ccc3ccccc3c2c[n+]2ccccc12`
A: 19.8 µM
